Hi there, I'd appreciate the recorded GCGR EC50 for every entry that follows.
- test-target: human glucagon receptor (human, UniProt P47871 26-477)
- Sequence (P47871 26-477): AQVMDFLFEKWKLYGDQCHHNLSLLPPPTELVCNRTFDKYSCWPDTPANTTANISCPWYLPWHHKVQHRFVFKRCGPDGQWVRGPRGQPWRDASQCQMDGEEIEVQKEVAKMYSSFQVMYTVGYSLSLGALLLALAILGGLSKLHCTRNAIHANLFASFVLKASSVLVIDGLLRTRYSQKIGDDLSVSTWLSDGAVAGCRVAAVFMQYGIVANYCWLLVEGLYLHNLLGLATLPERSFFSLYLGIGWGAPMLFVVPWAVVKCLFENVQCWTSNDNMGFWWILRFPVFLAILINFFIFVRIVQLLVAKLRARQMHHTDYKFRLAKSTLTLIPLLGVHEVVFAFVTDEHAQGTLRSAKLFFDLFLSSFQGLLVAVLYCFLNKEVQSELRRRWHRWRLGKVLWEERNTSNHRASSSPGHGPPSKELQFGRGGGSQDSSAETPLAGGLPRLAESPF
- protocol-description: cell-based or functional assay
Where no end group is shown, it is not given here. [ ]: non-standard residue; d: D form. (mPEG)2 40 kDa = C3 = Cys(mPEG)240kDa, branched (mPEG)2, 40 kDa; Aib = CC(C)(N)C(=O)O
Numeric only. Scale: nM

Which GCGR EC50 reading was recorded for the binder HSQGTFTSDYSKYLDSRRAQDFVQWLMNTKRNRNNIAC (D-Ser at position 2; C3 = Cys(mPEG)240kDa (branched (mPEG)2, 40 kDa) at position 38; C-terminal amide) [OXM35] ?
142

Which GCGR EC50 reading was recorded for the binder HSQGTFTSDYSKYLDSRRAQDFVQWLMNTKRNRNNIAC (D-Ser at position 2; C2 = Cys(mPEG)20kDa at position 38; C-terminal amide) [OXM34] ?
616

Which GCGR EC50 reading was recorded for the binder HXQGTFTSDYSKYLDSRRAQDFVQWLMNTKRNRNNIAC (α-aminoisobutyric acid (Aib) at position 2; C1 = Cys(mPEG)5kDa at position 38; C-terminal amide) [OXM67] ?
138

Which GCGR EC50 reading was recorded for the binder H[Aib]QGTFTSDYSKYLDSRRAC((mPEG)2 40 kDa)DFVQWLMNTKRNRNNIA-NH2 [OXM103] ?
203

Which GCGR EC50 reading was recorded for the binder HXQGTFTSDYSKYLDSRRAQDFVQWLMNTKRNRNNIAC (Aib at position 2; C2 = Cys(mPEG)20kDa at position 38; C-terminal amide) [OXM68] ?
601
